experiment: activity coefficient (dimensionless); of the first substance listed, at infinite dilution; xn = mol fraction of the nth substance listed
experimental.context: 348.15 K; 101 kPa; Liquid; Chromatography; x1 = 0
reported.metric: activity coefficient
Lab note: write the figure by itself, no unit.

CCCCO [butan-1-ol] + C[N+]1(CCCO)CCOCC1.O=S(=O)([N-]S(=O)(=O)C(F)(F)F)C(F)(F)F ... 2.84
CC#N [acetonitrile] + C[N+]1(CCCO)CCOCC1.O=S(=O)([N-]S(=O)(=O)C(F)(F)F)C(F)(F)F ... 0.528

Input CCc1ccccc1 [ethylbenzene] + C[N+]1(CCCO)CCOCC1.O=S(=O)([N-]S(=O)(=O)C(F)(F)F)C(F)(F)F . Output activity coefficient: 7.18

Input CCOC(C)=O [ethyl acetate] + C[N+]1(CCCO)CCOCC1.O=S(=O)([N-]S(=O)(=O)C(F)(F)F)C(F)(F)F . Output activity coefficient: 1.66

Input CCOCC [diethyl ether] + C[N+]1(CCCO)CCOCC1.O=S(=O)([N-]S(=O)(=O)C(F)(F)F)C(F)(F)F . Output activity coefficient: 5.1

Input CC(C)=O [acetone] + C[N+]1(CCCO)CCOCC1.O=S(=O)([N-]S(=O)(=O)C(F)(F)F)C(F)(F)F . Output activity coefficient: 0.572

Input CCCC=O [butanal] + C[N+]1(CCCO)CCOCC1.O=S(=O)([N-]S(=O)(=O)C(F)(F)F)C(F)(F)F . Output activity coefficient: 1.45
